- ASSAY_REMARKS: Terpene solubility assessment in base formulation of 10% Saline, 20% Water, 70% Ethanol
- Format: physicochemical
- TEST_PARAMETERS: Target Concentration 0.24% w/w; mixed overnight at room temperature
- Description: The base formulation was prepared in bulk and 15 g aliquots were transferred to 22 ml scintillation vials. Pure, botanically derived terpenes were purchased from commercial sources.
QUANTITY_MEASURED: Visual Observation

CC1=CCC(=C(C)C)CC1 [Terpinolene] ... Hazy, not fully
C=C1CC/C=C(\C)CC[C@@H]2[C@@H]1CC2(C)C [β-caryophyllene] ... Hazy, not fully
C=CC(C)(O)CCC=C(C)C (centres unmarked) [Linalool] ... Hazy, not fully
CC12CCC(CC1)C(C)(C)O2 [Eucalyptol] ... Hazy, not fully
C=CC(=C)CCC=C(C)C [β-myrcene] ... Hazy, not fully

Reference source: patent US20200253922A1
